Data provenance: patent US6071947A

assay: Test n° 5: in vivo bioavailability evaluation after oral administration; details: rat, in vivo, 10 mg/kg
parameter: bioavailability (%)
Give bare numbers, in %.

Incoming: Reported bioavailability, molecule "CCCCCCCCCCCC1=NC(=Cc2[nH]c(-c3cc4ccccc4[nH]3)cc2OC)C=C1.Cl" : ____
Outgoing: 5
